- experimentalSystem: Transcriptional regulator MvfR (Pseudomonas aeruginosa PA14)
- Sequence (A0A072ZLE6 whole entry): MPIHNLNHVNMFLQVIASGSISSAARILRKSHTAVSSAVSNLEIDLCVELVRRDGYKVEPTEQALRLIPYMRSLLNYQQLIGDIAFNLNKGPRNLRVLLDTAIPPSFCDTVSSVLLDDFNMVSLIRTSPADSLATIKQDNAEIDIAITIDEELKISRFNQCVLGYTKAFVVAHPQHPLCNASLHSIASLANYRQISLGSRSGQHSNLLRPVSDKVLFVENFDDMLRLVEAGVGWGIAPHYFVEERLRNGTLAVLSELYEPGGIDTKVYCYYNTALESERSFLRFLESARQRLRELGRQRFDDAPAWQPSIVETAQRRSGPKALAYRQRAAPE
- protocolDetails: Binding affinity to Pseudomonas aeruginosa PA14 biotinylated His6SUMO-tagged PqsR expressed in Eschericia coli BL21 (lamda DE3) by isothermal titration calorimetry
So I've got a bunch of molecules here, and I need their Kd values.
Expressed in µM, but write only the number.

Request: Identify measured Kd corresponding to Cc1cccc(-c2nnc(N)o2)c1
Result: 12.4

Request: Annotate the molecule NC(=O)c1cccc(Br)c1 with its measured Kd.
Result: 7.6

Request: Determine from records and report Kd for Nc1nnc(-c2cccc(C(F)(F)F)c2)o1
Result: 1.3

Request: Write down Kd measured for item Cc1nnc(-c2cccc(C(F)(F)F)c2)o1
Result: 12.9

Request: Indicate the recorded Kd value for this molecule: Nc1nnc(-c2ccc(Cl)cc2)s1
Result: 3.7
